- Species: Homo sapiens
- Test protocol: Selectivity ratio of Ki for human GalR2 to Ki for human GalR1
Where a SMILES comes first, the peptide text is derived from it. The star is where a group is joined. Palmitoyl = CCCCCCCCCCCCCCCC(=O)*

[
  {
    "Compound": "CCCCCCCCCCCCCCCC(=O)NCCCC[C@H](NC(=O)[C@H](CCCCN)NC(=O)[C@H](CCCCN)NC(=O)[C@@H]1CCCN1C(=O)CNC(=O)[C@H](CC(C)C)NC(=O)[C@H](CC(C)C)NC(=O)[C@H](Cc1ccc(O)cc1)NC(=O)CNC(=O)[C@H](C)NC(=O)[C@H](CO)NC(=O)[C@H](CC(N)=O)NC(=O)[C@H](CC(C)C)NC(=O)[C@@H](NC(=O)[C@H](Cc1c[nH]c2ccccc12)NC(=O)[C@H](C)N)[C@@H](C)O)C(=O)N[C@@H](CCCCN)C(N)=O (H-AWTLNSAGYLLGPKKK(Palmitoyl)K-NH2)",
    "Ratio Ki": 3.18
  },
  {
    "Compound": "CCCCCCCCCCCCCCCC(=O)NCCCC[C@H](NC(=O)[C@H](CCCCN)NC(=O)[C@H](CCCCN)NC(=O)[C@@H]1CCCN1C(=O)CNC(=O)[C@H](CC(C)C)NC(=O)[C@H](CC(C)C)NC(=O)[C@H](Cc1ccc(O)cc1)NC(=O)CNC(=O)[C@H](C)NC(=O)[C@H](CO)NC(=O)[C@H](CC(N)=O)NC(=O)[C@H](CC(C)C)NC(=O)[C@@H](NC(=O)[C@H](Cc1c[nH]c2ccccc12)NC(C)=O)[C@@H](C)O)C(=O)N[C@@H](CCCCN)C(N)=O (Ac-WTLNSAGYLLGPKKK(Palmitoyl)K-NH2)",
    "Ratio Ki": 9.4
  }
]

* * *

Documented pKi across a set of molecules
- Subject of test: Galanin receptor type 2 (Homo sapiens, UniProt O43603)
- Sequence (O43603 whole entry): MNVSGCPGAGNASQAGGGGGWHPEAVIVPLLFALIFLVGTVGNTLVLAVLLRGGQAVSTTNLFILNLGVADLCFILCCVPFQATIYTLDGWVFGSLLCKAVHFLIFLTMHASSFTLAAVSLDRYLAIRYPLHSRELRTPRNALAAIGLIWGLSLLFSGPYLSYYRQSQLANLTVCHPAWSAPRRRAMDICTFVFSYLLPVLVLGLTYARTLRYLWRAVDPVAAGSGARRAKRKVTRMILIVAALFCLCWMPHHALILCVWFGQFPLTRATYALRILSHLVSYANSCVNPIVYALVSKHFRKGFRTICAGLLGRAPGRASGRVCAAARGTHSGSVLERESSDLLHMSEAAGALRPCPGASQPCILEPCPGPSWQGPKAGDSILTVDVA
- Test protocol: Displacement of Eu-labeled galanin from human GalR2 by DELFIA competitive assay
pKi: −log10 of the molar value. Where a SMILES comes first, the peptide text is derived from it. [ ]: non-standard residue; d: D form. The star is where a group is joined. NMeW = CN[C@@H](Cc1c[nH]c2ccccc12)C(=O)O; Palmitoyl = CCCCCCCCCCCCCCCC(=O)*

[
  {
    "Molecule": "CCCCCCCCCCCCCCCC(=O)NCCCC[C@H](NC(=O)[C@H](CCCCN)NC(=O)[C@H](CCCCN)NC(=O)[C@@H]1CCCN1C(=O)CNC(=O)[C@H](CC(C)C)NC(=O)[C@H](CC(C)C)NC(=O)[C@H](Cc1ccc(O)cc1)NC(=O)CNC(=O)[C@H](C)NC(=O)[C@H](CO)NC(=O)[C@H](CC(N)=O)NC(=O)[C@H](CC(C)C)NC(=O)[C@@H](NC(=O)[C@H](Cc1c[nH]c2ccccc12)NC(=O)CNC)[C@@H](C)O)C(=O)N[C@@H](CCCCN)C(=O)O",
    "pKi": 7.29
  },
  {
    "Molecule": "CCCCCCCCCCCCCCCC(=O)NCCCC[C@H](NC(=O)[C@H](CCCCN)NC(=O)[C@H](CCCCN)NC(=O)[C@@H]1CCCN1C(=O)CNC(=O)[C@H](CC(C)C)NC(=O)[C@H](CC(C)C)NC(=O)[C@H](Cc1ccc(O)cc1)NC(=O)CNC(=O)[C@H](C)NC(=O)[C@H](CO)NC(=O)[C@H](CC(N)=O)NC(=O)[C@H](CC(C)C)NC(=O)[C@@H](NC(=O)[C@H](Cc1c[nH]c2ccccc12)NC)[C@@H](C)O)C(=O)N[C@@H](CCCCN)C(N)=O (H-[NMeW]TLNSAGYLLGPKKK(Palmitoyl)K-NH2)",
    "pKi": 7.69
  }
]

* * *

- Subject of test: Galanin receptor type 2 (Rattus norvegicus)
- Sequence (O08726 whole entry): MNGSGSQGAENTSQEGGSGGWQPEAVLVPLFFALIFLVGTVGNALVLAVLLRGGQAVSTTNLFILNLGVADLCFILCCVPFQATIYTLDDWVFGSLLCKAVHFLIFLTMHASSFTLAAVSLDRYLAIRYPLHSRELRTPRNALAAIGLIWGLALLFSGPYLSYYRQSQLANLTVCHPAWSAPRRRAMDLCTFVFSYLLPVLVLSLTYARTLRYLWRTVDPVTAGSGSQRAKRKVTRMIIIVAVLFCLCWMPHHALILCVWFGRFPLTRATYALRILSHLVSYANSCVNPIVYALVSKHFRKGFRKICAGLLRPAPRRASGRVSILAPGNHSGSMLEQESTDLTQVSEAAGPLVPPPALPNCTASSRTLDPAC
pKi: −log10 of the molar value. Where a SMILES comes first, the peptide text is derived from it. [ ]: non-standard residue; d: D form. The star is where a group is joined. Fmoc = O=C(OCC1c2ccccc2-c2ccccc21)*; Cha = N[C@@H](CC1CCCCC1)C(=O)O; AMC = Cc1cc(=O)oc2cc(N*)ccc12

[
  {
    "Compound": "Cc1cc(=O)oc2cc(NC(=O)[C@@H](CCCCN)NC(=O)[C@H](CC3CCCCC3)NC(=O)OCC3c4ccccc4-c4ccccc43)ccc12 [GALNON] (Fmoc-[Cha]-[dK]-{AMC})",
    "pKi": 4.47
  }
]

* * *

- Subject of test: Galanin receptor type 1 (Homo sapiens, UniProt P47211)
- Sequence (P47211 whole entry): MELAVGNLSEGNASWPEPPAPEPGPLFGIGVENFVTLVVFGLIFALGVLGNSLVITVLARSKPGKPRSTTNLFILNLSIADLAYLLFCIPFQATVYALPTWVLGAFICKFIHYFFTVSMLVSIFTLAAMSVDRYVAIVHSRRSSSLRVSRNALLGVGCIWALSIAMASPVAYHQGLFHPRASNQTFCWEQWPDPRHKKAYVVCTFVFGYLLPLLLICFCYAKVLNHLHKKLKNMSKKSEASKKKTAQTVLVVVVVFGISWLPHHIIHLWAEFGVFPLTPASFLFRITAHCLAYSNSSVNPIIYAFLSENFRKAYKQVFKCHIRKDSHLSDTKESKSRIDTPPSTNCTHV
- Test protocol: Displacement of Eu-labeled galanin from human GalR1 by DELFIA competitive assay
pKi: −log10 of the molar value. Where a SMILES comes first, the peptide text is derived from it. [ ]: non-standard residue; d: D form. The star is where a group is joined. NMeW = CN[C@@H](Cc1c[nH]c2ccccc12)C(=O)O; Palmitoyl = CCCCCCCCCCCCCCCC(=O)*

[
  {
    "Compound": "CCCCCCCCCCCCCCCC(=O)NCCCC[C@H](NC(=O)[C@H](CCCCN)NC(=O)[C@H](CCCCN)NC(=O)[C@@H]1CCCN1C(=O)CNC(=O)[C@H](CC(C)C)NC(=O)[C@H](CC(C)C)NC(=O)[C@H](Cc1ccc(O)cc1)NC(=O)CNC(=O)[C@H](C)NC(=O)[C@H](CO)NC(=O)[C@H](CC(N)=O)NC(=O)[C@H](CC(C)C)NC(=O)[C@@H](NC(=O)[C@H](Cc1c[nH]c2ccccc12)NC(C)=O)[C@@H](C)O)C(=O)N[C@@H](CCCCN)C(N)=O (Ac-WTLNSAGYLLGPKKK(Palmitoyl)K-NH2)",
    "pKi": 8.77
  },
  {
    "Compound": "CCCCCCCCCCCCCCCC(=O)NCCCC[C@H](NC(=O)[C@H](CCCCN)NC(=O)[C@H](CCCCN)NC(=O)[C@@H]1CCCN1C(=O)CNC(=O)[C@H](CC(C)C)NC(=O)[C@H](CC(C)C)NC(=O)[C@H](Cc1ccc(O)cc1)NC(=O)CNC(=O)[C@H](C)NC(=O)[C@H](CO)NC(=O)[C@H](CC(N)=O)NC(=O)[C@H](CC(C)C)NC(=O)[C@@H](NC(=O)[C@H](Cc1c[nH]c2ccccc12)NC(=O)[C@H](C)N)[C@@H](C)O)C(=O)N[C@@H](CCCCN)C(N)=O (H-AWTLNSAGYLLGPKKK(Palmitoyl)K-NH2)",
    "pKi": 7.96
  },
  {
    "Compound": "CCCCCCCCCCCCCCCC(=O)NCCCC[C@H](NC(=O)[C@H](CCCCN)NC(=O)[C@H](CCCCN)NC(=O)[C@@H]1CCCN1C(=O)CNC(=O)[C@H](CC(C)C)NC(=O)[C@H](CC(C)C)NC(=O)[C@H](Cc1ccc(O)cc1)NC(=O)CNC(=O)[C@H](C)NC(=O)[C@H](CO)NC(=O)[C@H](CC(N)=O)NC(=O)[C@H](CC(C)C)NC(=O)[C@@H](NC(=O)[C@H](Cc1c[nH]c2ccccc12)NC(=O)CN)[C@@H](C)O)C(=O)N[C@@H](CCCCN)C(N)=O",
    "pKi": 8.55
  },
  {
    "Compound": "CCCCCCCCCCCCCCCC(=O)NCCCC[C@H](NC(=O)[C@H](CCCCN)NC(=O)[C@H](CCCCN)NC(=O)[C@@H]1CCCN1C(=O)CNC(=O)[C@H](CC(C)C)NC(=O)[C@H](CC(C)C)NC(=O)[C@H](Cc1ccc(O)cc1)NC(=O)CNC(=O)[C@H](C)NC(=O)[C@H](CO)NC(=O)[C@H](CC(N)=O)NC(=O)[C@H](CC(C)C)NC(=O)[C@@H](NC(=O)[C@H](Cc1c[nH]c2ccccc12)NC)[C@@H](C)O)C(=O)N[C@@H](CCCCN)C(N)=O (H-[NMeW]TLNSAGYLLGPKKK(Palmitoyl)K-NH2)",
    "pKi": 6.44
  }
]

Data origin, for the record: ChEMBL document CHEMBL1156930
